Target or system D(4) dopamine receptor (Homo sapiens, UniProt P21917); metric pKi; compiled from varied reports.
pKi: −log10 of the molar value.
QUANTITY_KIND: pKi

Check out these entries, answers already filled in.
ENTRY_SMILES	pKi
c1ccc(CN2CCC(n3ccc(-c4cnco4)c3)CC2)cc1	6.89
Clc1ccc(-n2cc(CCCCN3CCN(c4ccccc4)CC3)cn2)cc1	6.10
COc1cc2c(cc1O)CN(Cc1ccccc1CNC(=O)c1ccccc1Cl)CC2	5.41
N#CC(C#N)=Cc1cc(CN2CCN(c3ccccc3)CC2)c[nH]1	8.41
Cc1ccc2c3c(c(=O)oc2c1)CN(Cc1ccc(F)cc1)CC3	8.12
c1ccc(CCN2CCC(c3cc(-c4cccnc4)n[nH]3)CC2)cc1	7.64
CC1(c2ccc(Cl)cc2)CCN(Cc2c[nH]c3ccccc23)CC1	5.56
COc1ccccc1N1CCN(CCCCn2cc(-c3ccc(-c4ccccc4)cc3)nn2)CC1	6.37
COc1cccc2c1CCC[C@H]2CN(C)CCc1ccc2ccoc2c1	6.63
Fc1ccc(COC2CCN(Cc3ncc4ccccn34)CC2)cc1F	6.67

A = COc1cc2c(cc1OC)CN(Cc1ccccc1CNC(=O)c1cccc(C#N)c1)CC2
B = Clc1ccc(-n2cc(CCCN3CCN(c4ccccc4)CC3)cn2)cc1
C = c1ccc(-c2ncc(CN3CCN(c4ncccn4)CC3)[nH]2)cc1
D = CN1CCc2cc(Cl)c(O)cc2[C@H]2c3cccc(Br)c3CC[C@@H]21
In: Let's sort these by pKi, smallest first. Go ahead? Order the labels as requested and give them as your answer.
Out: D, B, A, C
(D: 5.00, B: 6.48, A: 7.24, C: 8.42)

====

Target or system D(4) dopamine receptor (Homo sapiens); metric Ki; compiled from varied reports.
QUANTITY_KIND: Ki (nM)

I = COc1ccc(-n2cc(C(=O)NCCCCN3CCN(c4cccc(Cl)c4Cl)CC3)nn2)cc1
II = CCC(C)(C)C(=O)NCCN1CCN(c2ccc(Cl)cc2)CC1
In: Which value of Ki is smaller, the one for I or the one for II ? Selection: enter the item's label.
Out: II
(II: 7.94 nM, I: 320 nM)

a = COc1cc2ccccc2cc1C(=O)OCC1CCN(Cc2ccccc2)CC1
b = Cc1nn(C2CCN(Cc3ccccc3)CC2)cc1-c1ccccc1
In: Identify the entry with the larger Ki. Options: a and b Selection: enter the item's label.
Out: a
(a: 5.01 nM, b: 0.39 nM)

a = COc1ccccc1N1CCN(CCCCNC(=O)c2cc3cc(I)ccc3s2)CC1
b = COc1cc2c(cc1O)[C@@H]1Cc3ccc(O)c(OC)c3CN1CC2
In: Which value of Ki is smaller, the one for a or the one for b ? Selection: enter the item's label.
Out: a
(a: 42 nM, b: 3750 nM)

====

pKi: −log10 of the molar value.
Target or system D(4) dopamine receptor (Homo sapiens, UniProt P21917); metric pKi; compiled from varied reports.
QUANTITY_KIND: pKi

COMPOUND	OBS_VALUE
CC(C)(C)c1ccc(N2CCN(Cc3ccc4ccc(=O)oc4c3)CC2)cc1	6.64
Cc1ccccc1CN1CCOC(CCc2ccccc2)C1 (racemic)	5.99
COc1cccc(CCC2=NCCN2CCc2ccccc2)c1	7.02
COc1ccccc1N1CCN(CCCNS(=O)(=O)c2ccc3ccccc3c2)CC1	6.95
COc1cc2c(cc1O)CN(Cc1ccccc1CNC(=O)c1ccc(C#N)cc1)CC2	5.55
O=C(NCCCN1CCN(c2ccc(Cl)cc2)CC1)NN(Cc1ccc(F)cc1)c1ccccc1	7.77

P = CNc1cc(OC)c(C(=O)N[C@H]2CCCN(Cc3ccccc3)C2)cc1Cl (stereo in doubt; 5b)
Q = CNc1cc(OC)c(C(=O)N[C@H]2CCN(Cc3ccccc3)C[C@@H]2C)cc1Cl (stereo in doubt; 3b)
In: Which value of pKi is smaller, the one for P or the one for Q ? Selection: enter the item's label.
Out: P

P = COc1ccccc1N1CCN(CCCNC(=O)NN(Cc2ccc(-c3ccccc3)cc2)c2ccc(F)cc2)CC1
Q = O=C(NCCN1CCN(c2ccc(I)cc2)CC1)NN(Cc1ccccc1)c1ccccc1
In: Identify the entry with the larger pKi. Options: P and Q Selection: enter the item's label.
Out: P

P = O=C1COc2ccc(CN3CCN(c4ccc(Cl)cc4)CC3)cc2N1
Q = CN1CCc2cc(Cl)c(O)cc2[C@H]2c3cccc(-c4cccc([N+](=O)[O-])c4)c3CC[C@@H]21
In: Which value of pKi is smaller, the one for P or the one for Q ? Selection: enter the item's label.
Out: Q

A = COc1cc(N)c(Cl)cc1C(=O)NC[C@@H]1CCN(Cc2ccccc2)C1
B = OC1(c2cccc(Cl)c2Cl)CCN(Cc2c[nH]c3ccccc23)CC1
C = CN(CCC(=O)OC1(c2ccc(Cl)cc2)CCN(CCCC(=O)c2ccc(F)cc2)CC1)CCN(C)CCC(=O)OC1(c2ccc(Cl)cc2)CCN(CCCC(=O)c2ccc(F)cc2)CC1
In: Let's sort these by pKi, smallest first. Go ahead? Order the labels as requested and give them as your answer.
Out: B, A, C
(B: 5.81, A: 6.74, C: 7.54)

P = COc1ccccc1N1CCCN(CCCCNC(=O)c2ccc(Br)s2)CC1
Q = CCOC(=O)c1cc2cc(OCCCCN3CCN(c4cccc(Cl)c4Cl)CC3)ccn2n1
In: Identify the entry with the larger pKi. Options: P and Q Selection: enter the item's label.
Out: Q
(Q: 7.33, P: 6.75)

====

Target or system D(4) dopamine receptor (Homo sapiens, UniProt P21917); metric Ki; compiled from varied reports.
QUANTITY_KIND: Ki (nM)

Check out these entries, answers already filled in.
ENTRY_SMILES	Ki, nM
CCCN(CCNC(=O)/C=C/c1ccc(F)cc1)C1Cc2ccccc2C1	1.4
COc1ccc(OC[C@@H]2CC[C@H]3CN(c4ncccn4)CCN3C2)cc1	18
COc1cc(CN2CCN(c3ccccc3OC)CC2)c(OCCF)cc1OC	1.3
COc1ccccc1N1CCN(CCCCNC(=O)c2cc3cc(C#N)ccc3[nH]2)CC1	24

I = COc1ccccc1N1CCN(Cc2cn(CCOCCF)nn2)CC1
II = COc1ccc2c(c1)C(=O)N(CCN1CCN(c3ccc(Cl)cc3)CC1)CC2
III = O=C(NCCCCN1CCN(c2cccc(Cl)c2Cl)CC1)c1cccc(F)n1
IV = FC(F)(F)Oc1cccc(CO[C@H]2CCCN(Cc3cn4ccccc4n3)C2)c1
V = CN1CCN(C2=Nc3cc(Cl)ccc3N(NC(=O)c3c(F)cccc3C(F)(F)F)c3ccccc32)CC1
In: Let's sort these by Ki, smallest first. Go ahead? Order the labels as requested and give them as your answer.
Out: I, III, II, IV, V

====

Target or system D(4) dopamine receptor (Homo sapiens, UniProt P21917); metric Ki; compiled from varied reports.
# TARGET_OF_ASSAY: D(4) dopamine receptor (Homo sapiens, UniProt P21917)
# Sequence (P21917 whole entry): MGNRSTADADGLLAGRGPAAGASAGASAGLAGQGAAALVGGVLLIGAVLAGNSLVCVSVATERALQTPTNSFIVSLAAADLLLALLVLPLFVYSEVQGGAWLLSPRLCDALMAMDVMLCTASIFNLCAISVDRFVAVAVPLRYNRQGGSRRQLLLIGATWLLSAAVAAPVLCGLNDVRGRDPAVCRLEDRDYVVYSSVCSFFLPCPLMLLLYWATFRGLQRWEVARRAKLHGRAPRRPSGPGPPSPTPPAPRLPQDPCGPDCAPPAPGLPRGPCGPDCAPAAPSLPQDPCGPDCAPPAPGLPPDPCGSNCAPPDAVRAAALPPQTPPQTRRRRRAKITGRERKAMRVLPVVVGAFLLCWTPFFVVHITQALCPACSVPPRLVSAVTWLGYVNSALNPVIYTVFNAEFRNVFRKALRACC
QUANTITY_KIND: Ki (µM)

Check out these entries, answers already filled in.
COMPOUND	TARGET_OF_ASSAY	Ki / µM
COc1ccccc1N1CCN(Cc2cc(C#Cc3ccccc3)c3cccccc2-3)CC1	D(4) dopamine receptor (Homo sapiens, UniProt P21917)	0.016
Clc1ccc2c(c1)N=C(N1CCN(C3CCCCC3)CC1)c1cccnc1O2	D(4) dopamine receptor (Homo sapiens, UniProt P21917)	0.798
COc1ccc(CN2CCOC(CCc3ccccc3)C2)cc1 (racemic)	D(4) dopamine receptor (Homo sapiens, UniProt P21917)	0.046
OC1(c2ccc(Cl)c(Cl)c2)CCN(Cc2n[nH]c3ccccc23)CC1	D(4) dopamine receptor (Homo sapiens, UniProt P21917)	0.677
COc1ccccc1OCCNC[C@H](O)c1ccc(O)c(O)c1	D(4) dopamine receptor (Homo sapiens, UniProt P21917)	0.3

P = FC(F)(F)c1nc2c(OCCNCc3ccccc3)cc(Cl)cc2[nH]1
Q = COc1cc(Cl)ccc1N1CCN(CCCCNC(=O)C(C)(C)C)CC1
R = COc1ccccc1N1CCN(CCCCc2cn(-c3ccc(-c4ccsc4)cc3)nn2)CC1
S = COc1ccc(CNC(=O)NCCCN2CCN(c3ccccc3OC)CC2)c(-c2ccccc2)c1
T = O=Cc1cnn2ccc(OCCCCN3CCN(c4ccc(O)c5c4OCCO5)CC3)cc12
In: // ranking: key=Ki, reverse=True Order the labels as requested and give them as your answer.
Out: R, T, Q, P, S
(R: 0.395 µM, T: 0.13 µM, Q: 0.0158 µM, P: 0.007 µM, S: 0.0031 µM)
